System: Aspergillus fumigatus
Assay: Antimicrobial activity against Aspergillus fumigatus after 72 hrs by standard microbroth dilution technique
Format: functional
measurement_kind: MIC

INSERT INTO measurements (molecule, result_value) VALUES
  ('O=C1/C(=C/c2ccc(Cl)cc2)CCCC/C1=C\c1ccc(Cl)cc1', '> 50 µg/mL'),
  ('COc1ccc(/C=C2\CCC/C(=C\c3ccc(OC)c(OC)c3)C2=O)cc1OC', '> 50 µg/mL'),
  ('O=C1/C(=C/c2ccccc2)CCC/C1=C\c1ccccc1 [2,6-DIBENZYLIDENECYCLOHEXANONE]', '> 50 µg/mL'),
  ('O=C1/C(=C/c2ccc3ccccc3c2)CCC/C1=C\c1ccc2ccccc2c1', '> 50 µg/mL'),
  ('COc1cc(/C=C2\CCC/C(=C\c3cc(OC)c(OC)c(OC)c3)C2=O)cc(OC)c1OC', '> 50 µg/mL');
